EC50 for assorted compounds
Tested on: CEM cells HIV-1 protection, formazan growth assay
Test: NCI AIDS Antiviral Assay
parameter: EC50

INSERT INTO assay_data (compound, parameter, result) VALUES
  ('O=C(O)c1ccc(O)c(N=Nc2cc(S(=O)(=O)O)c3cccnc3c2O)c1', 'EC50', '81.3 µM'),
  ('C=C1C(=O)O[C@H]2C1C[C@H](O)[C@@]1(C)OC1CC[C@@]1(C)O[C@H]21 (stereo partly specified)', 'EC50', '> 200 µM'),
  ('CC1(C)CC(=O)C(CC2C(=O)CCCC2=O)C(=O)C1', 'EC50', '> 955 µM'),
  ('CC(=O)Oc1c2c(c(CC=C(C)C)c3c1C(=O)C1=C[C@@H]4CC5C(C)(C)OC(C/C=C(/C)C(=O)O)(C4=O)[C@@]15O3)OC(C)(CCC=C(C)C)C=C2 (stereo partly specified)', 'EC50', '> 2 µM'),
  ('C/C(=N\NC(C)(C)C)c1sc(-c2nc(C)c(/C(C)=N/NC(C)(C)C)s2)nc1C', 'EC50', '> 44.7 µM'),
  ('Cc1ccc(C(N)=O)cc1N=NN(C)C', 'EC50', '> 457 µM'),
  ('Clc1ccc(SCCSCCCCCCCCCCSCCSc2ccc(Cl)cc2)cc1', 'EC50', '> 9.55 µM'),
  ('CC(C)c1ccc(C=Nc2ccc(SSc3ccc(N=Cc4ccc(C(C)C)cc4)cc3)cc2)cc1', 'EC50', '> 200 µM'),
  ('CCOC(=O)CC1(Cc2ccc(OCc3ccccc3)cc2)C(=O)OC(c2ccccc2)N1C(=O)c1ccccc1 (stereo unspecified)', 'EC50', '> 200 µM'),
  ('O=c1ccc2cc([N+](=O)[O-])ccc2o1', 'EC50', '> 646 µM'),
  ('CC(O)C(O)C(N)CC=O (stereo unspecified)', 'EC50', '> 200 µM'),
  ('Cc1noc(NS(=O)(=O)c2ccc(NC(=O)c3ccc4nc5ccccc5c(Nc5ccc(S(=O)(=O)Nc6onc(C)c6C)cc5)c4c3)cc2)c1C', 'EC50', '63.1 µM'),
  ('O=C(O)CN(CCN(CC(=O)O)CC(=O)O)CC(=O)O.[Cu+2].[Na+]', 'EC50', '> 200 µM'),
  ('CC(=O)/C(=C\c1ccccc1O)C(=O)Nc1ccccc1C', 'EC50', '> 33.9 µM'),
  ('CCOC(=O)C1(c2ccccc2)C(=O)Oc2ccccc21 (stereo unspecified)', 'EC50', '13.2 µM'),
  ('C/C(=N\N=C(\[Se])N1CCN(c2ccccn2)CC1)c1ccccn1', 'EC50', '> 36.3 µM'),
  ('CCOc1c(OC)cc(-c2nc3n(n2)C(=O)C(CC)S3)cc1OC (stereo unspecified)', 'EC50', '> 200 µM'),
  ('COc1cc2cc(OC(C)=O)c3cc4c(cc3c2c(OC)c1OC)OCO4', 'EC50', '> 676 µM'),
  ('CCC[CH2][Sn]1([CH2]CCC)[O]CC(COc2c(Cl)cc(Cl)cc2Cl)[O]1 (stereo unspecified)', 'EC50', '> 3.98 µM'),
  ('COc1ccc(/C=C2\SC(=S)N(/C=C(/C#N)C(=O)c3ccc4ccccc4c3)C2=O)cc1OC', 'EC50', '> 200 µM'),
  ('O=C1C=CC(=Nc2ccc3c(c2)Cc2ccccc2-3)O1', 'EC50', '> 200 µM');
